- targetSystem: human clotting factor VIIa (Homo sapiens, UniProt P08709)
- Sequence (P08709 213-466 limits assumed): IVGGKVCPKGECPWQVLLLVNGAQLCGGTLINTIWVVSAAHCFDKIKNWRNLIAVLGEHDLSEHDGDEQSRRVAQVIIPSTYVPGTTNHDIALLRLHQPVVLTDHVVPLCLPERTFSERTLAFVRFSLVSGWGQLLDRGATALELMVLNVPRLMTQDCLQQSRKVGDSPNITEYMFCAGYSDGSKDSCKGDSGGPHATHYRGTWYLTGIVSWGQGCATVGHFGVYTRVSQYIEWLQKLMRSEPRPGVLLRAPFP
- Sequence (P08709 61-212 limits assumed): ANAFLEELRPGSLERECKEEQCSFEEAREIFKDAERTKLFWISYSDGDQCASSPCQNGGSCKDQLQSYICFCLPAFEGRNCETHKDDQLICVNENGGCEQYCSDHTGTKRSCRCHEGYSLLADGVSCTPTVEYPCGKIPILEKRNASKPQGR
- Sequence (P13726 33-295 partner): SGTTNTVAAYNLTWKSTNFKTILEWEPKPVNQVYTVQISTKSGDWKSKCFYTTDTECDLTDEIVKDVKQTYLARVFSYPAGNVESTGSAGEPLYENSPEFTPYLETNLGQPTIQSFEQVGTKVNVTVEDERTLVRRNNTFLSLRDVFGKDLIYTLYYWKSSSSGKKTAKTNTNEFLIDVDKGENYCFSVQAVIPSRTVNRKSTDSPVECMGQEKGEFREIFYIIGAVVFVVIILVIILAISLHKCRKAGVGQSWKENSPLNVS
// map IC50 to label using low = under 9 nM, middle = from 9 nM up to 10 nM, high = 10 nM and over

Input line: State the class of the compound shown: COc1cc(OCCCO)c(F)c(C(Nc2ccc(C(=N)N)cc2)c2nn(-c3ncsc3C(=O)O)c(=O)[nH]2)c1 (racemic)
Output line: high

Input line: State the class of the compound shown: COc1cc(OC)c(F)c(C(Nc2ccc(C(=N)N)cc2)c2nn(-c3ncccn3)c(=O)[nH]2)c1 (racemic) [Example 66, acetate]
Output line: low

Input line: State the class of the compound shown: CCOc1cc(C(Nc2ccc(C(=N)N)cc2)c2nn(-c3ncccn3)c(=O)[nH]2)cnc1OC (racemic) [Example 160, acetate]
Output line: middle

Input line: State the class of the compound shown: COc1cc(C(Nc2ccc(C(=N)N)cc2)c2nn(-c3ncccn3)c(=O)[nH]2)cc2c1OCOCC2 (racemic) [Example 130, acetate]
Output line: high

Input line: State the class of the compound shown: CCOC(=O)c1cn[nH]c1-n1nc(C(Nc2ccc(C(=N)N)cc2)c2cc(OC)c3c(c2F)OCCO3)[nH]c1=O (stereo not drawn) [Example 175, acetate]
Output line: low

Input line: State the class of the compound shown: CCOc1cc(C(Nc2ccc(C(=N)N)cc2)c2nn(-c3ncsc3C(=O)O)c(=O)[nH]2)cnc1OC (single isomer, unassigned)
Output line: high

Input line: State the class of the compound shown: COC(=O)c1ccccc1-n1nc(C(Nc2ccc(C(=N)N)cc2)c2cc(OC)c(OC)cc2F)[nH]c1=O (racemic) [Example 108, acetate]
Output line: low

Input line: State the class of the compound shown: Cc1cc(C(Nc2ccc(C(=N)N)cc2)c2nn(-c3ncccn3)c(=O)[nH]2)cc2c1OCOC2 (racemic) [Example 97, acetate]
Output line: high

Input line: State the class of the compound shown: CCOc1ccc(F)c(C(Nc2ccc(C(=N)N)cc2)c2nn(-c3ncccn3)c(=O)[nH]2)c1 (racemic) [Example 96, acetate]
Output line: high

Input line: State the class of the compound shown: COc1cc(OC)c(F)c(C(Nc2ccc(C(=N)N)cc2)c2nn(-c3cccc[n+]3[O-])c(=O)[nH]2)c1 (single isomer, unassigned)
Output line: middle

Input line: State the class of the compound shown: COc1cc(C(Nc2ccc(C(=N)N)cc2)c2nn(-c3ncccn3)c(=O)[nH]2)ccc1OCF (racemic) [Example 53, acetate]
Output line: high

Input line: State the class of the compound shown: CCOc1cc(OCCO)cc(C(Nc2ccc(C(=N)N)cc2)c2nn(-c3ncccn3)c(=O)[nH]2)c1 (racemic)
Output line: low

Input line: State the class of the compound shown: COc1cc(OCC(=O)N(C)C)c(F)c(C(Nc2ccc(C(=N)N)cc2)c2nn(-c3ncccn3)c(=O)[nH]2)c1 (racemic) [Example 15, acetate]
Output line: high
